For each of the compounds below, state its log10(IC50).
Values are log10 of IC50 in nM.

API: value(readout= log10(IC50), system= cAMP and cAMP-inhibited cGMP 3',5'-cyclic phosphodiesterase 10A (Homo sapiens), query= Cn1ncc(CO)c1C(=O)Nc1ccn2nc(-c3ccccc3)nc2c1 [Roche-Dataset for PDE10A, Compound 287] )
1.72

API: value(readout= log10(IC50), system= cAMP and cAMP-inhibited cGMP 3',5'-cyclic phosphodiesterase 10A (Homo sapiens), query= O=C(Nc1cc(-c2ccccn2)nn1CC1CCCC1)c1nc(C2CC2)ccc1Nc1cncnc1 [US8470820, 31] )
0.05

API: value(readout= log10(IC50), system= cAMP and cAMP-inhibited cGMP 3',5'-cyclic phosphodiesterase 10A (Homo sapiens), query= CNC(=O)c1cc2[nH]c(-c3ccccc3)nc2cc1NC(=O)c1ccnnc1 [Roche-Dataset for PDE10A, Compound 466] )
1.36

API: value(readout= log10(IC50), system= cAMP and cAMP-inhibited cGMP 3',5'-cyclic phosphodiesterase 10A (Homo sapiens), query= Cn1cc(-c2ccccc2)nc1COc1cc(N2CCOCC2)nc(-c2ccn[nH]2)n1 [Roche-Dataset for PDE10A, Compound 108] )
2.57

API: value(readout= log10(IC50), system= cAMP and cAMP-inhibited cGMP 3',5'-cyclic phosphodiesterase 10A (Homo sapiens), query= CN(C)C(=O)c1cnn(C)c1C(=O)N[C@@H]1CCn2cc(-c3ccccc3OC(F)F)nc2C1 [Roche-Dataset for PDE10A, Compound 317] )
1.28

API: value(readout= log10(IC50), system= cAMP and cAMP-inhibited cGMP 3',5'-cyclic phosphodiesterase 10A (Homo sapiens), query= O=C(NCC1CCOCC1)c1nc(C2CC2)cnc1Nc1cncnc1 [Roche-Dataset for PDE10A, Compound 988] )
3.76

API: value(readout= log10(IC50), system= cAMP and cAMP-inhibited cGMP 3',5'-cyclic phosphodiesterase 10A (Homo sapiens), query= CCOc1ccccc1-c1cn2c(n1)C[C@H](NC(=O)c1c(C(=O)N3CCC3)cnn1C)CC2 [Roche-Dataset for PDE10A, Compound 251] )
0.34

---

target: cAMP and cAMP-inhibited cGMP 3',5'-cyclic phosphodiesterase 10A (Homo sapiens, UniProt Q9Y233)
For each of the compounds below, state its log10(IC50).
Values are log10 of IC50 in nM.

Need log10(IC50) of Cc1[nH]c(-c2ccncc2)nc1CCN1C(=O)c2ccccc2C1=O [Roche-Dataset for PDE10A, Compound 395] , thanks.
4.24

Need log10(IC50) of COCCn1ncc(NC(=O)c2nc(C3CC3)ccc2Nc2cncnc2)c1C(=O)N(C)C [Roche-Dataset for PDE10A, Compound 944] , thanks.
1.11

Need log10(IC50) of Cc1c(Cl)cc(Cl)c2nc(CCc3ccn(C)n3)nn12 [Roche-Dataset for PDE10A, Compound 980] , thanks.
2.49

Need log10(IC50) of Cc1c(NC(=O)c2c(C(=O)N3CCC3)cnn2C)ccn2nc(-c3ccccc3)nc12 [Roche-Dataset for PDE10A, Compound 341] , thanks.
1.20

Need log10(IC50) of Cn1nc(-c2ccccn2)cc1NC(=O)c1cccc2c1OCCO2 [Roche-Dataset for PDE10A, Compound 655] , thanks.
4.00

Need log10(IC50) of CC(C)n1ncc2cc(CCc3nc(-c4ccccc4)cn3C)ncc21 [Roche-Dataset for PDE10A, Compound 48] , thanks.
2.93

Need log10(IC50) of O=C(NC1CCOCC1)c1nc(C2CC2)cnc1Nc1cncnc1 [Roche-Dataset for PDE10A, Compound 1059] , thanks.
3.25
